// compounds with reported IC50 on Macrophage metalloelastase (Homo sapiens, UniProt P39900), multi-publication
Binarize IC50 at 30 nM; below is MET, at or above is NOT MET.

Quick check: does `CC(C)[C@H](NS(=O)(=O)c1ccc2c(c1)oc1ccc(-c3noc(-c4ccc(F)cc4F)n3)cc12)C(=O)O` have IC50 under 30 nM?
MET

Does the reported IC50 of the following compound sit strictly below 30 nM? `CC(C)[C@H](NS(=O)(=O)c1ccc2c(c1)oc1cc(-c3ccoc3)ccc12)C(=O)O`
MET

IC50 under 30 nM? Item: O=CN(O)C(CO)CS(=O)(=O)N1CCc2cc(Cl)c(Cl)cc2C1 (centres unmarked)
MET

Could you please tell me whether IC50 recorded for COCCOC(=O)N1CC[C@H]2C[C@@H](C(=O)NO)N(S(=O)(=O)c3ccc(OC)cc3)[C@H]2C1 (relative stereo) is less than 30 nM?
NOT MET

# check: IC50 < 30 nM for `CC(C)[C@H](NS(=O)(=O)c1ccc2c(c1)oc1ccc(C3=NCCN3)cc12)C(=O)O`
MET

Does the reported IC50 of `CCCn1cc(-c2ccc3oc4cc(S(=O)(=O)N[C@H](C(=O)O)C(C)C)ccc4c3c2)cn1` stay below 30 nM?
MET

Is the reported IC50 for O=CN(O)C(C#CCN1CCCC1)CS(=O)(=O)N1CCN(c2ccc(F)cc2)CC1 (centres unmarked) strictly below 30 nM?
NOT MET

Identify whether the compound `CC(C)[C@H](NS(=O)(=O)c1ccc2c(c1)oc1ccc(-c3nc4cc(F)c(F)cc4s3)cc12)C(=O)O` records IC50 below 30 nM.
MET

Quick check: does `Cc1nc(-c2cnc(-c3ccc4c(c3)oc3cc(S(=O)(=O)N[C@H](C(=O)O)C(C)C)ccc34)s2)no1` have IC50 under 30 nM?
MET

In plain terms, does O=CN(O)C(CS(=O)(=O)N1CCc2ccc(F)cc2C1)C1CCN(Cc2ccccc2)CC1 (centres unmarked) come in under 30 nM for IC50?
NOT MET

IC50 under 30 nM? Item: `CC(C)[C@H](NS(=O)(=O)c1ccc2c(c1)oc1ccc(C#CCN(C)C)cc12)C(=O)O`
MET

Check if IC50 falls below 30 nM for O=CN(O)C(CS(=O)(=O)N1CCc2ccc(-c3ccncc3)cc2C1)C1CCCC1 (centres unmarked) .
MET

Please let me know if `CC(C)[C@H](NS(=O)(=O)c1ccc2c(c1)oc1ccc(-c3sc(Cl)cc3Cl)cc12)C(=O)O` shows IC50 below 30 nM.
MET

Is IC50 strictly under 30 nM for the entry `CC(C)[C@H](NS(=O)(=O)c1ccc2c(c1)oc1ccc(-c3csc(Cl)n3)cc12)C(=O)O` ?
MET

Please indicate whether the reported IC50 of COc1ccc2c(c1)CN(S(=O)(=O)CC(CCC1CCCO1)N(O)C=O)CC2 (centres unmarked) is strictly below 30 nM.
MET

I wonder whether `CC(C)[C@H](NS(=O)(=O)c1ccc2c(c1)oc1ccc(-c3ccccc3)cc12)C(=O)O` has IC50 below 30 nM. Can you tell?
MET

Is it true that IC50 reported for `CC(C)[C@H](NS(=O)(=O)c1ccc2c(c1)sc1ccc(-c3cccnc3)cc12)C(=O)O` is less than 30 nM?
MET
